System: c-Abl (mouse)
experiment: phosphorylation enrichment, bacterial display (enrichment ratio); higher = better substrate or ligand; peptides without Tyr show the background
property-name: phosphorylation enrichment

// query For the sequence shown here, PLTKVYVVEGS [ZMPSTE24_Y253] , give the reported phosphorylation enrichment.
// result 0.617

// query For the sequence SFSGEYGGGGG [ZG16_Y30_YF] , what phosphorylation enrichment is on record?
// result 0.505

// query Look at this sequence and give its reported phosphorylation enrichment. CSSGGYEPRGR [FUS_Y239_R234C]
// result 0.528

// query What value of phosphorylation enrichment has been recorded for this entry: LLREWYLPDPF [SIX3_Y225_Q227P_YF]
// result 1.13

###

Please provide measured phosphorylation enrichment for the entries that follow.
tested-on: EPHB1 (UniProt P54762)
Sequence (P54762 whole entry, looked up): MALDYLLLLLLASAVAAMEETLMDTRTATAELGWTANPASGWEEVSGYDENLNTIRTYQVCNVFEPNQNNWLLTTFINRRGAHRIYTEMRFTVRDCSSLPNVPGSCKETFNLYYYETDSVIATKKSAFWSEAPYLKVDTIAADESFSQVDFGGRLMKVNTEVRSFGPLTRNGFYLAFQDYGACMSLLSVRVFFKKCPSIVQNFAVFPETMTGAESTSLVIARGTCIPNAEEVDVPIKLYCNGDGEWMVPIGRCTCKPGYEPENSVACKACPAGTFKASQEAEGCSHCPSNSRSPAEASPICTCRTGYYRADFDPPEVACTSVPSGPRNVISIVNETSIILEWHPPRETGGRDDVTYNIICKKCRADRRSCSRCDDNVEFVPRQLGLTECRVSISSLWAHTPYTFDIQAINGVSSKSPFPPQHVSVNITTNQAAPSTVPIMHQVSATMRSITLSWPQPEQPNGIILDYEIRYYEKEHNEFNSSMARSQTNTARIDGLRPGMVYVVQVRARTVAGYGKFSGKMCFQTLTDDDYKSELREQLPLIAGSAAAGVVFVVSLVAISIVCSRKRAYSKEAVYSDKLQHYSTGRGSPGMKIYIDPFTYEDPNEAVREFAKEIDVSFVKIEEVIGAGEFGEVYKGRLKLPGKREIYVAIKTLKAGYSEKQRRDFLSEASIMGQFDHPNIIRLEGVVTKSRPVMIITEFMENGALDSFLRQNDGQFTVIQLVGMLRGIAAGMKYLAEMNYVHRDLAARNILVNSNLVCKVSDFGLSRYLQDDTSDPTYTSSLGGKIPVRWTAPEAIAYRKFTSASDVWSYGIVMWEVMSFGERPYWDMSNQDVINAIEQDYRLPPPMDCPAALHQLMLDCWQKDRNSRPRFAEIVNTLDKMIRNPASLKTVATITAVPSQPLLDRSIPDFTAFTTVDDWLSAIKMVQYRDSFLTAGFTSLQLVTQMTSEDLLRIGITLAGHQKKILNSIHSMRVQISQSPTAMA
experiment: phosphorylation enrichment, bacterial display (enrichment ratio); higher = better substrate or ligand; peptides without Tyr show the background
No unit in the answer, only the number.

// query GET /values?readout=phosphorylation enrichment&item= VPLLEYYRDIF [CDAN1_Y712]
// result 0.564

// query Name the reported phosphorylation enrichment value associated with the sequence PNQRRYVFFFS [PTEN_Y174_S170N_YF]
// result 0.61

// query Returns the measured phosphorylation enrichment for the input sequence. Input: LQLLGYRPVYS [CHST6_Y358]
// result 0.954

// query Report phosphorylation enrichment for FLNSIYKCRDE [ROS1_Y2227_S2229C] please.
// result 0.463

// query Value lookup for phosphorylation enrichment; key = LYNQDYPIHCV [GATM_Y227_S231C]
// result 0.614

// query Fill blank: measured phosphorylation enrichment of the sequence VFPATYHPDHW [EFCAB12_Y544_YF] is ____.
// result 0.678

###

tested-on: Jak2 (UniProt O60674)
Sequence (O60674 whole entry, looked up): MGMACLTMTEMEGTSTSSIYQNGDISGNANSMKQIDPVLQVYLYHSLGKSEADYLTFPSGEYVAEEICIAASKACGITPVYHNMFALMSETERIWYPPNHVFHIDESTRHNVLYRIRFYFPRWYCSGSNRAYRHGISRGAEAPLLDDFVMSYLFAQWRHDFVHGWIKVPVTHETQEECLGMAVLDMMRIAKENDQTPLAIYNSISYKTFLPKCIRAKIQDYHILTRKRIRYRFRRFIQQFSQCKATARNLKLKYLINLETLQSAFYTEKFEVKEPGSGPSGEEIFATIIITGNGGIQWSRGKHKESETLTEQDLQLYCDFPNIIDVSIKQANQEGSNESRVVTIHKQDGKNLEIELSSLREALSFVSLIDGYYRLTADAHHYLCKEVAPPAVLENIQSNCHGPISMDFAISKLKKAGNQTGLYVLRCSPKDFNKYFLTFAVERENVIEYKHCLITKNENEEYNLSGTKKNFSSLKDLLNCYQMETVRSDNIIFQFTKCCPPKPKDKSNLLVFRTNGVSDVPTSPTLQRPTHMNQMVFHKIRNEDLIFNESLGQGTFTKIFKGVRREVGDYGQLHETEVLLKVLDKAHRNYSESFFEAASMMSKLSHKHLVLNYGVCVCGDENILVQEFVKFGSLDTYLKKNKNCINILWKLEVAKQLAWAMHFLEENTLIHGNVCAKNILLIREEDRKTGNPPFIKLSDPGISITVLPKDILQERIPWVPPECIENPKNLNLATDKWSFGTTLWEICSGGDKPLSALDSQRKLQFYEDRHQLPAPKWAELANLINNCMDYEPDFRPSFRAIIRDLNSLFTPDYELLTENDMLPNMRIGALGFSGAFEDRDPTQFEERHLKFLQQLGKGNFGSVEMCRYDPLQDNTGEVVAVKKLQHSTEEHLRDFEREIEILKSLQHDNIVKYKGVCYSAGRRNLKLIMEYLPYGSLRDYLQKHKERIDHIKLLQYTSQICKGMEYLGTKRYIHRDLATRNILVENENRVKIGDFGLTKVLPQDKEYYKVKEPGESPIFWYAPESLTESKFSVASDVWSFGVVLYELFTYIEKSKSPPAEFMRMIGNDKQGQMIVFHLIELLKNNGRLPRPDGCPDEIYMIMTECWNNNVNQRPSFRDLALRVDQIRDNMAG
experiment: phosphorylation enrichment, bacterial display (enrichment ratio); higher = better substrate or ligand; peptides without Tyr show the background
property-name: phosphorylation enrichment
In your answer, state the number alone without any accompanying words.

// query // lookup phosphorylation enrichment for HFNLTYRILSF [MMP23B_Y95]
// result 1.8

// query // phosphorylation enrichment lookup, key: VLPIDYYFPPQ [AR_Y552]
// result 6.26

// query Which phosphorylation enrichment value belongs to LFEDRYLLGPS [ASS1_Y87_T91P_YF] ?
// result 1.73

###

Test system: c-Abl (mouse)
experiment: phosphorylation enrichment, bacterial display (enrichment ratio); higher = better substrate or ligand; peptides without Tyr show the background
Use 0.7 as the dividing line for phosphorylation enrichment, with the line itself on the 1.0 side and lower values as 0.0.

// query For this sequence, is measured phosphorylation enrichment 0.7 or higher? YLNSSYINIST [IL23R_Y178_T175N]
// result 0.0

// query Test whether the sequence GEDPIYVTLEG [RTKtide_2018] records phosphorylation enrichment of 0.7 or higher.
// result 1.0

// query Would you say YTGNTYRVGDT [FN1_Y106] shows phosphorylation enrichment at minimum 0.7?
// result 0.0

// query Is it the case that RLSELYLRRNP [CFAP410_Y68_R73P] has phosphorylation enrichment reaching or exceeding 0.7?
// result 0.0

// query Is it the case that YLELNYKEDEY [MME_Y502] has phosphorylation enrichment reaching or exceeding 0.7?
// result 1.0

// query Check if phosphorylation enrichment >= 0.7 (inclusive). Item: VNQSGYTLIRK [ATP6V0A2_Y688_R685Q]
// result 0.0

// query # bool: phosphorylation enrichment of MCDKEYYSVHN [MET_Y1234_Y1230C] >= 0.7
// result 0.0

// query API: above_or_equal(metric=phosphorylation enrichment, cutoff=0.7) for item NLVSEYQQFQD [TUBB3_Y422_D417N_YF]
// result 1.0

// query Check the entry SVKVFYKKCWS [EPHA7_Y202_YF] : does phosphorylation enrichment equal or exceed 0.7?
// result 1.0

// query Please check the record IMNLLYHVVGW [GBA_Y412_T408M] and state if its phosphorylation enrichment is at or above 0.7.
// result 1.0

// query Kindly determine if phosphorylation enrichment recorded for VDGSVYELHPS [GCK_Y413_K414E] is above or exactly 0.7.
// result 1.0

// query Reported phosphorylation enrichment at or above 0.7? PVKSEYPSIKL [NPC2_Y119]
// result 0.0

// query Form field: phosphorylation enrichment at least 0.7? Entry: DLDFTYIYPNI [PTEN_Y27_L25F]
// result 1.0

// query Could you tell me if the measured phosphorylation enrichment of QFQEKYKQVEQ [HCN4_Y531_YF] reaches 0.7 or more?
// result 1.0

// query Answer whether phosphorylation enrichment of NKVFTYIFIME [SCN4A_Y1074_D1069N] is greater than or equal to 0.7.
// result 1.0

// query Check this sequence for phosphorylation enrichment at or above 0.7: RNFGTYTAGLS [RHBDD1_Y264_D262G_YF]
// result 0.0

// query Tell me whether phosphorylation enrichment is at least 0.7 here: VEDHDYEGGIG [TKT_Y564_Y563D]
// result 1.0

// query Does IIQRAYRGHLL [SCN1A_Y1926_R1928G] have a reported phosphorylation enrichment of at least 0.7?
// result 0.0

// query Does the sequence LEFNEYFRDLN [HPRT1_Y198_D194E_YF] have recorded phosphorylation enrichment that is 0.7 or more?
// result 1.0

// query Does the reported phosphorylation enrichment for NQSVRYDSSLK [ABCC8_Y1353_L1349Q] fall at or above the 0.7 mark?
// result 0.0

// query Say whether NHFKRYNLCAE [PTEN_Y68_I67R_YF] shows phosphorylation enrichment of 0.7 or more.
// result 0.0

###

tested-on: SHP2-C SH2
experiment: SH2 binding enrichment of the phosphorylated peptide, bacterial display (enrichment ratio); higher = better substrate or ligand; peptides without Tyr show the background
# if value of SH2 binding enrichment reaches 0.8, tag Condition met; if it stays below, tag Condition not met

// query Kindly determine if SH2 binding enrichment recorded for TVFSDYLHPQF [CCPG1_Y569_YF] is above or exactly 0.8.
// result Condition not met

// query Decide: SH2 binding enrichment of QTLTDYDIRFY [CSNK2A1_Y131] >= 0.8?
// result Condition not met

// query Could you verify whether the entry VLALWYYYLTN [ZDHHC23_Y127_H132N] shows SH2 binding enrichment of no less than 0.8?
// result Condition met

// query Quick check: does QFKGKYLAKHN [CASK_Y712_D710G_YF] have SH2 binding enrichment greater than or equal to 0.8?
// result Condition met

// query Decide: SH2 binding enrichment of SIKDKYVTAFF [KCNH2_Y611_L615F_YF] >= 0.8?
// result Condition met

// query State whether the measured SH2 binding enrichment reaches 0.8, counting equality as reaching it, for GGYTCYSDGKK [PROS1_Y266_C267S]
// result Condition not met

// query Does the reported SH2 binding enrichment for IMWDSYTTNKV [GNB3_Y85_V81M] fall at or above the 0.8 mark?
// result Condition not met

// query Could you please find out whether ARTNEYKIIRT [INA_Y87] has SH2 binding enrichment that meets 0.8 or exceeds it?
// result Condition met

// query Could you verify whether the entry ATATDYHTTSH [SLC4A1_Y46] shows SH2 binding enrichment of no less than 0.8?
// result Condition not met

// query # check: SH2 binding enrichment of DTMQTYNGNDE [TSPAN7_Y131_A127T] is greater than or equal to 0.8
// result Condition not met

// query Please tell me: is the sequence DLAGRYYALKS [CKB_Y173] at or over 0.8 in terms of SH2 binding enrichment?
// result Condition not met

// query Determine whether this sequence has SH2 binding enrichment no lower than 0.8: HKANEYFPVVI [ADAMTS18_Y764_L769I_YF]
// result Condition met

###

tested-on: Fyn (UniProt P06241)
Sequence (P06241 whole entry, looked up): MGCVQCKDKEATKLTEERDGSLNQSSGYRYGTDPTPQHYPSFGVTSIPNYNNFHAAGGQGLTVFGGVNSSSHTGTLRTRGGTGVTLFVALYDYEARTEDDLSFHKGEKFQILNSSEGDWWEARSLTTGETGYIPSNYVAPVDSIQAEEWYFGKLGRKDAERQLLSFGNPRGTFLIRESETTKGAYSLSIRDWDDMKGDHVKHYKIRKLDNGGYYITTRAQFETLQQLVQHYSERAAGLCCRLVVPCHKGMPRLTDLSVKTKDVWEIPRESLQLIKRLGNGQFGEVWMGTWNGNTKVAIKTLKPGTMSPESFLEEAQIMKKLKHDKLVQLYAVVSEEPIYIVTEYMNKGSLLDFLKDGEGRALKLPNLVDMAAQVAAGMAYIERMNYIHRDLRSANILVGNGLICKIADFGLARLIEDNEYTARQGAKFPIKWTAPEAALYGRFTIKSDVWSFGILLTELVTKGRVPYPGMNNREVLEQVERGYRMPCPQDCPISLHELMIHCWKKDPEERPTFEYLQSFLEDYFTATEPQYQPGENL
experiment: phosphorylation enrichment, bacterial display (enrichment ratio); higher = better substrate or ligand; peptides without Tyr show the background
property-name: phosphorylation enrichment
// return just the number, without any unit appended

// query I have this sequence here, ISKQEYDEAGP [ACTC1_Y364] , and I need its recorded phosphorylation enrichment.
// result 0.602

// query Need phosphorylation enrichment of SYCYRYRCAAW [SUMF1_Y344_R349W] , thanks.
// result 0.395

// query // phosphorylation enrichment lookup, key: SREDIYKRNIE [PDE4DIP_Y45]
// result 0.591

// query What value of phosphorylation enrichment has been recorded for this entry: FIGCIYLYLTK [GARS1_Y414_R412C]
// result 0.393

// query Any idea what phosphorylation enrichment was measured for VIKDKYPKAHF [APTX_Y209_R213H_YF] ?
// result 0.389

// query For the sequence VEGIGYDFIPT [CBS_Y308] , what phosphorylation enrichment is on record?
// result 0.594

// query Value lookup for phosphorylation enrichment; key = DKTGEYPVPLI [ACADM_Y73]
// result 0.407

// query Need phosphorylation enrichment, item SDVCMYRKNTY [SYNE2_Y570_I574T]
// result 0.405

// query Name the reported phosphorylation enrichment value associated with the sequence HFNLTYRILSF [MMP23B_Y95]
// result 0.391
